system: U937 cells; assay: High-content imaging skin sensitizing prediction assay: U937 cells treated 24 h with a range of compound concentrations, CD54 intensity per cell and cell number dose response curves qualified, decision matrix applied; conditions: skin sensitivity prediction from decision matrix of FIG. 8 (CD54/cell vs cell number); Toxic* = at concentrations tested
MEASUREMENT NAME: Outcome

>>> print(df.to_string())
                                   molecule  assayed_system  measurement_name          result
0                                   CC(C)=O      U937 cells           Outcome      Sensitizer
1                       CC(C)=CCC/C(C)=C/CO      U937 cells           Outcome      Sensitizer
2  CCCCCCCC/C=C\CCCCCCCC(=O)OCCOCC(OCCO)C1OCC(OCCO)C1OCCO (stereo not drawn)      U937 cells           Outcome  Non-sensitizer
3  CCCCCCCCCCCCOS(=O)(=O)[O-].[Na+] [Sodium Lauryl Sulfate]      U937 cells           Outcome      Sensitizer

# return recorded Outcome for input `O=C(O)c1ccccc1O`
Toxic*

# return recorded Outcome for input C=CC(=O)OCCO [2hydroxyethylacrylate]
Sensitizer

# return recorded Outcome for input `Nc1ccccc1O`
Sensitizer

# return recorded Outcome for input `CCO`
Non-sensitizer

# return recorded Outcome for input CC(O)C(=O)O (stereo not drawn)
Toxic*

# return recorded Outcome for input `O=CC=O`
Sensitizer

# return recorded Outcome for input CCOC(=O)c1ccccc1C(=O)OCC [Diethyl Phthalate]
Toxic*

# return recorded Outcome for input `CCCCCCCC(=O)O`
Sensitizer

# return recorded Outcome for input `NCCNc1ccccc1`
Non-sensitizer

# return recorded Outcome for input `O=Cc1ccccc1`
Sensitizer

# return recorded Outcome for input CC(O)CO (stereo not drawn)
Non-sensitizer

# return recorded Outcome for input N#CCCC(Br)(C#N)CBr (stereo not drawn)
Toxic*

# return recorded Outcome for input `OCC(O)CO`
Non-sensitizer

# return recorded Outcome for input `CC(C)O`
Non-sensitizer

###

system: U937 cells; experiment: High-content imaging skin sensitizing prediction assay: U937 cells treated 24 h with a range of compound concentrations, CD54 intensity per cell and cell number dose response curves qualified, decision matrix applied; details: qualified dose response curve (increasing/flat/decreasing) of CD54 intensity per cell; U937 cells, 24 hours compound treatment, range of concentrations
MEASUREMENT NAME: CD54/Cell Result

In [3]: df
Out[3]:
                               compound  measurement_name    result
0        CC(O)C(=O)O (stereo not drawn)  CD54/Cell Result  Decrease
1                          C[S+](C)[O-]  CD54/Cell Result  Decrease
2                            Nc1ccccc1O  CD54/Cell Result  Increase
3                               CC(C)=O  CD54/Cell Result  Increase
4  C=CC(=O)OCCO [2hydroxyethylacrylate]  CD54/Cell Result  Increase
5                       O=C(O)c1ccccc1O  CD54/Cell Result  Decrease

# return recorded CD54/Cell Result for input `O=CC=O`
Increase

# return recorded CD54/Cell Result for input `CN(C)C=O`
Increase

# return recorded CD54/Cell Result for input `CC(C)O`
Decrease

# return recorded CD54/Cell Result for input `OCC(O)CO`
Flat

# return recorded CD54/Cell Result for input N#CCCC(Br)(C#N)CBr (stereo not drawn)
Decrease

# return recorded CD54/Cell Result for input `CCOc1cc(C=O)ccc1O`
Decrease

# return recorded CD54/Cell Result for input CCOC(=O)c1ccccc1C(=O)OCC [Diethyl Phthalate]
Decrease

# return recorded CD54/Cell Result for input `CC(C)=CCC/C(C)=C/CO`
Increase

# return recorded CD54/Cell Result for input CCCCCCCCCCCCOS(=O)(=O)[O-].[Na+] [Sodium Lauryl Sulfate]
Increase

# return recorded CD54/Cell Result for input `O=Cc1ccccc1`
Increase

# return recorded CD54/Cell Result for input `CCCCCCCC(=O)O`
Increase

# return recorded CD54/Cell Result for input `NCCNc1ccccc1`
Decrease

# return recorded CD54/Cell Result for input CC(O)CO (stereo not drawn)
Decrease

# return recorded CD54/Cell Result for input `CCO`
Decrease

# return recorded CD54/Cell Result for input CCCCCCCC/C=C\CCCCCCCC(=O)OCCOCC(OCCO)C1OCC(OCCO)C1OCCO (stereo not drawn)
Decrease

###

tested on: U937 cells; assay: High-content imaging skin sensitizing prediction assay: U937 cells treated 24 h with a range of compound concentrations, CD54 intensity per cell and cell number dose response curves qualified, decision matrix applied; details: qualified dose response curve (increasing/flat/decreasing) of number of cells; U937 cells, 24 hours compound treatment, range of concentrations
MEASUREMENT NAME: Cell Number Result

Observe how each entry below is paired with its result.
In [3]: df
Out[3]:
                                   molecule    result
0                         CC(C)=O [Acetone]  Decrease
1              O=Cc1ccccc1 [Benzylaldehyde]  Increase
2            CC(C)=CCC/C(C)=C/CO [Geraniol]  Increase
3  CCOC(=O)c1ccccc1C(=O)OCC [Diethyl Phthalate]  Decrease
4      C=CC(=O)OCCO [2hydroxyethylacrylate]  Increase
5        CCOc1cc(C=O)ccc1O [Ethyl Vanillin]  Decrease

# return recorded Cell Number Result for input C[S+](C)[O-] [DMSO]
Increase

# return recorded Cell Number Result for input CC(O)C(=O)O (stereo not drawn) [Lactic Acid]
Decrease

# return recorded Cell Number Result for input CC(O)CO (stereo not drawn) [Propylene Glycol]
Flat

# return recorded Cell Number Result for input O=C(O)c1ccccc1O [Salicylic Acid]
Decrease
